Data origin, for the record: the supplement of paper PMC9112550

# Tested on: Escherichia coli TOP10
# protocol: shrunken log2 fold change of peptide-encoding DNA abundance (4.5 h post-induction vs induction); higher = less antimicrobial activity (less host growth inhibition)
# reported conditions: time post-induction: 4.5 h; library: site-saturation at positions 5, 18, 19, 20
Response key: true (1) means shrunken log2 fold change >= -0.3; false (0) means shrunken log2 fold change < -0.3.

Illustrative cases are given below, each with its answer.
RRIRDRPPRLPRPRPRPWNNPRP
true (1)
RRIRNRPPRLPRPRPRPKCHPRP
true (1)
RRIRRRPPRLPRPRPRPNEMPRP
true (1)
RRIRSRPPRLPRPRPRPDGLPRP
true (1)

Q: Reported shrunken log2 fold change reaches at least -0.3 for RRIRIRPPRLPRPRPRPKFMPRP ?
Ans: false (0)

Q: Decide: shrunken log2 fold change of RRIRPRPPRLPRPRPRPFGTPRP >= -0.3?
Ans: false (0)

Q: Reported shrunken log2 fold change at or above -0.3? RRIRKRPPRLPRPRPRPRYPPRP
Ans: true (1)

Q: Is shrunken log2 fold change at least -0.3? Consider RRIRYRPPRLPRPRPRPKFWPRP
Ans: true (1)

Q: State whether the measured shrunken log2 fold change reaches -0.3, counting equality as reaching it, for RRIRIRPPRLPRPRPRPACEPRP
Ans: true (1)

###

For each record, write down the corresponding shrunken log2 fold change.
# Tested on: Escherichia coli TOP10
# protocol: shrunken log2 fold change of peptide-encoding DNA abundance (4.5 h post-induction vs induction); higher = less antimicrobial activity (less host growth inhibition)
# reported conditions: time post-induction: 4.5 h; library: site-saturation at positions 5, 18, 19, 20
Answers are plain numbers.

RRIRNRPPRLPRPRPRPKIMPRP
0.0385

Each sequence below has a reported value. Please supply its shrunken log2 fold change.
1. RRIRDRPPRLPRPRPRPETGPRP
2. RRIRLRPPRLPRPRPRPGYDPRP
3. RRIRVRPPRLPRPRPRPGQCPRP

Ans:
1. -0.0106
2. -0.233
3. -0.0287

Give measured shrunken log2 fold change for every item shown.
1. RRIRFRPPRLPRPRPRPRFYPRP
2. RRIRHRPPRLPRPRPRPHKAPRP
3. RRIRVRPPRLPRPRPRPRQLPRP
4. RRIRHRPPRLPRPRPRPLYRPRP
5. RRIRKRPPRLPRPRPRPKSSPRP
6. RRIRKRPPRLPRPRPRPESQPRP
7. RRIRCRPPRLPRPRPRPRSMPRP

Ans:
1: -0.0297; 2: -0.31; 3: 0.276; 4: -0.343; 5: 0.202; 6: 0.967; 7: -0.0145

Would you mind giving shrunken log2 fold change for every sequence in the list below?
1. RRIRKRPPRLPRPRPRPMPSPRP
2. RRIRIRPPRLPRPRPRPAAVPRP
3. RRIRVRPPRLPRPRPRPDPHPRP

Ans:
1: 0.0546; 2: -0.181; 3: -0.16

Q: Identify the measured shrunken log2 fold change of RRIRRRPPRLPRPRPRPDKTPRP for Escherichia coli TOP10.
Ans: 0.119

###

# System: Escherichia coli TOP10
# protocol: shrunken log2 fold change of peptide-encoding DNA abundance (4.5 h post-induction vs induction); higher = less antimicrobial activity (less host growth inhibition)
# reported conditions: time post-induction: 4.5 h; library: site-saturation at positions 5, 18, 19, 20
MET means recorded shrunken log2 fold change is -0.1 or above; NOT MET means it is below -0.1.

RRIRERPPRLPRPRPRPYPVPRP
NOT MET
RRIRTRPPRLPRPRPRPNASPRP
MET
RRIRVRPPRLPRPRPRPLDKPRP
MET
RRIRGRPPRLPRPRPRPPAEPRP
MET
RRIRPRPPRLPRPRPRPCNFPRP
NOT MET
RRIRLRPPRLPRPRPRPNGPPRP
NOT MET
RRIRSRPPRLPRPRPRPWEQPRP
NOT MET

Here is another sequence to look at.
Q: Confirm if shrunken log2 fold change reported for the sequence RRIRMRPPRLPRPRPRPRTTPRP is -0.1 or above.
Ans: MET

###

For each entry below, report its shrunken log2 fold change value.
# Tested on: Escherichia coli TOP10
# protocol: shrunken log2 fold change of peptide-encoding DNA abundance (4.5 h post-induction vs induction); higher = less antimicrobial activity (less host growth inhibition)
# reported conditions: time post-induction: 4.5 h; library: site-saturation at positions 5, 18, 19, 20
One number for each entry.

Give one value of shrunken log2 fold change per listed sequence.
1. RRIRWRPPRLPRPRPRPEAYPRP
2. RRIRERPPRLPRPRPRPTMHPRP
3. RRIRSRPPRLPRPRPRPGMMPRP
4. RRIRTRPPRLPRPRPRPVSKPRP
5. RRIRPRPPRLPRPRPRPQASPRP
6. RRIRERPPRLPRPRPRPKCTPRP
7. RRIRDRPPRLPRPRPRPPDEPRP

Ans:
[0.212, -0.229, 0.227, -0.096, -0.137, -0.882, 0.00333]

Required: shrunken log2 fold change, one value per sequence below.
1. RRIRWRPPRLPRPRPRPASYPRP
2. RRIRFRPPRLPRPRPRPESHPRP
3. RRIRQRPPRLPRPRPRPCVSPRP
4. RRIRNRPPRLPRPRPRPLDRPRP
5. RRIRIRPPRLPRPRPRPPITPRP

Ans:
1. 0.151
2. -0.154
3. -0.107
4. 0.0215
5. -0.366

Report shrunken log2 fold change for each item below.
1. RRIRDRPPRLPRPRPRPPGTPRP
2. RRIRQRPPRLPRPRPRPPSHPRP
3. RRIRMRPPRLPRPRPRPPGCPRP

Ans:
0.435
0.0871
0.451

###

# Test system: Escherichia coli TOP10
# protocol: shrunken log2 fold change of peptide-encoding DNA abundance (4.5 h post-induction vs induction); higher = less antimicrobial activity (less host growth inhibition)
# reported conditions: time post-induction: 4.5 h; library: site-saturation at positions 5, 18, 19, 20
Could you please classify the records by shrunken log2 fold change using these ranges: c1 = under -0.2, c2 = from -0.2 up to 0.3, c3 = 0.3 and over

RRIRSRPPRLPRPRPRPDFDPRP
c2
RRIRARPPRLPRPRPRPKICPRP
c2
RRIRVRPPRLPRPRPRPYIRPRP
c1

Q: Category of RRIRQRPPRLPRPRPRPNAEPRP , please.
Ans: c2

Q: State the band of RRIRKRPPRLPRPRPRPEKLPRP
Ans: c2

Q: Please report the category associated with RRIRLRPPRLPRPRPRPANTPRP , nothing else.
Ans: c2

Q: Category of RRIRKRPPRLPRPRPRPLESPRP , please.
Ans: c3

Q: Band of RRIRPRPPRLPRPRPRPRGRPRP ?
Ans: c3

Q: Band of RRIRQRPPRLPRPRPRPAAFPRP ?
Ans: c3

Q: Entry RRIRIRPPRLPRPRPRPRYHPRP belongs to which category?
Ans: c1

Q: State the band of RRIRFRPPRLPRPRPRPHYLPRP
Ans: c1

Q: Dear colleague, I would appreciate it if you could identify the bin for RRIRMRPPRLPRPRPRPKMDPRP and reply at your convenience.
Ans: c3

Q: Please indicate the class for RRIRVRPPRLPRPRPRPRVKPRP based on its shrunken log2 fold change.
Ans: c1

Q: Category of RRIRLRPPRLPRPRPRPAIYPRP , please.
Ans: c1

###

# Tested on: Escherichia coli TOP10;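 further: peptides expressed intracellularly from a pBAD plasmid library in pooled LB shake-flask culture, induced with 0.3% L-arabinose, DNA abundance read by NGS, three biological replicates, DESeq2 with apeglm shrinkage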
# protocol: shrunken log2 fold change of peptide-encoding DNA abundance (4.5 h post-induction vs induction); higher = less antimicrobial activity (less host growth inhibition)
# reported conditions: time post-induction: 4.5 h; library: site-saturation at positions 5, 18, 19, 20
Use t when the recorded shrunken log2 fold change is no lower than -0.03; use f when it is lower.

Example cases with answers are listed next.
RRIRERPPRLPRPRPRPQHAPRP
f
RRIRPRPPRLPRPRPRPTTSPRP
t
RRIRWRPPRLPRPRPRPYTKPRP
t
RRIRVRPPRLPRPRPRPAQAPRP
t
RRIRMRPPRLPRPRPRPLVDPRP
t
RRIRQRPPRLPRPRPRPTKEPRP
t
RRIRGRPPRLPRPRPRPNVPPRP
t
RRIRWRPPRLPRPRPRPVWLPRP
t

Q: Does the reported shrunken log2 fold change for RRIRFRPPRLPRPRPRPATVPRP fall at or above the -0.03 mark?
Ans: t

Q: Check this sequence for shrunken log2 fold change at or above -0.03: RRIRARPPRLPRPRPRPTKCPRP
Ans: t

Q: Tell me whether shrunken log2 fold change is at least -0.03 here: RRIRPRPPRLPRPRPRPSAVPRP
Ans: t

Q: Check this sequence for shrunken log2 fold change at or above -0.03: RRIRMRPPRLPRPRPRPCFLPRP
Ans: f

Q: Hi team, for RRIRYRPPRLPRPRPRPYRIPRP , is the recorded shrunken log2 fold change at or above -0.03?
Ans: f

Q: State whether the measured shrunken log2 fold change reaches -0.03, counting equality as reaching it, for RRIRMRPPRLPRPRPRPDNYPRP
Ans: f

Q: Does the sequence RRIRLRPPRLPRPRPRPQYYPRP have recorded shrunken log2 fold change that is -0.03 or more?
Ans: f

Q: Say whether RRIRIRPPRLPRPRPRPQMKPRP shows shrunken log2 fold change of -0.03 or more.
Ans: f

Q: Would you say RRIRIRPPRLPRPRPRPEGPPRP shows shrunken log2 fold change at minimum -0.03?
Ans: f
